subject of test: PI3kδ (Homo sapiens, UniProt O00329)
Sequence (O00329 whole entry): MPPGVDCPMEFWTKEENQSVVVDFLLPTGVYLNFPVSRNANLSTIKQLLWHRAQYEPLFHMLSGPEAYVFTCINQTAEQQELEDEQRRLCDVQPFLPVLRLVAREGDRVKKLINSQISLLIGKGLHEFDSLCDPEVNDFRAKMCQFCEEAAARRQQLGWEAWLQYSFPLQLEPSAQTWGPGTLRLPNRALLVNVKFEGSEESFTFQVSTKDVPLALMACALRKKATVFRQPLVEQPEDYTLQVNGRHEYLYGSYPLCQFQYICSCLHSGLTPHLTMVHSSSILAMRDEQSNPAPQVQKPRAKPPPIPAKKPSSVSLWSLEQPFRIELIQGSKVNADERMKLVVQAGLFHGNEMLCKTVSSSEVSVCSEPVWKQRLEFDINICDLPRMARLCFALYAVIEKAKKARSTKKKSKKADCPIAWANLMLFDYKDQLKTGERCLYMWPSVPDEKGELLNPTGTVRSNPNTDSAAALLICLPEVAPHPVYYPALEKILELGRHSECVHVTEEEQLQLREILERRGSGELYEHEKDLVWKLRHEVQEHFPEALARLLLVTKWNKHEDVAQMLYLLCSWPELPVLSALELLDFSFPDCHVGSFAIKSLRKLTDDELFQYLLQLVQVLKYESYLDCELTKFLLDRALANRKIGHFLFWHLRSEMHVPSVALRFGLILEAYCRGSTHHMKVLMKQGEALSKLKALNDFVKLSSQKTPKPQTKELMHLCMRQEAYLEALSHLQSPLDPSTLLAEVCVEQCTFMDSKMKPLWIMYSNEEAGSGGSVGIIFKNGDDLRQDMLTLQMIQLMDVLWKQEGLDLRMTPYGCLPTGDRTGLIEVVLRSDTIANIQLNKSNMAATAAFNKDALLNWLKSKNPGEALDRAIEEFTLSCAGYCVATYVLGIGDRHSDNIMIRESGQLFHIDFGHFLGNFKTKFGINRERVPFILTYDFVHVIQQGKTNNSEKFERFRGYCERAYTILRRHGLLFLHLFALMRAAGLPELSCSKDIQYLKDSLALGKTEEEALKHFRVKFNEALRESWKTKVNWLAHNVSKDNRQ
Sequence (P27986 whole entry partner): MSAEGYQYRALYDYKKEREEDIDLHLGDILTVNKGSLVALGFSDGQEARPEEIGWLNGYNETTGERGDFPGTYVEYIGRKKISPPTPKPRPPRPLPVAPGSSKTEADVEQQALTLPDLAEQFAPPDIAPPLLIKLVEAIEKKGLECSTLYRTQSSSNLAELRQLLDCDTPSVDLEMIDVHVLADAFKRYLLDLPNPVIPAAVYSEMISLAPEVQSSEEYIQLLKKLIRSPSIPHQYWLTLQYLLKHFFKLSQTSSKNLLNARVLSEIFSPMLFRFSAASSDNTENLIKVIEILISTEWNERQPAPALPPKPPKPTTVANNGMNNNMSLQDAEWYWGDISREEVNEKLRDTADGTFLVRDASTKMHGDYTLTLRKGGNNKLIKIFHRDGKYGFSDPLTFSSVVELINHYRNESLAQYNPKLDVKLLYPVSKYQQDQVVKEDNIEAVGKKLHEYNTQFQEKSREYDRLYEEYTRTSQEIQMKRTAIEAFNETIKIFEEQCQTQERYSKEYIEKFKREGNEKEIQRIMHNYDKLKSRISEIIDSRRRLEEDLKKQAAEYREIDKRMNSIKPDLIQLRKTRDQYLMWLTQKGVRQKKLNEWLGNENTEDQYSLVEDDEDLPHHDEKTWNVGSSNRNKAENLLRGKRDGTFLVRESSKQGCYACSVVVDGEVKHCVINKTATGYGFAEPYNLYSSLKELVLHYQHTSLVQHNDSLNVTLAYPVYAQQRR
method: Fluorescent (HTRF) determination of PI3 kinase enzyme activity, PI3Kδ
Type: biochemical
experimental readout: IC50

INPUT: Name the reported IC50 value associated with the molecule CC(C)Oc1ccc(-c2nn(C(C)c3oc4cccc(F)c4c(=O)c3-c3cccc(F)c3)c3ncnc(N)c23)cc1F (single isomer, unassigned; (-)) [Example 8]
OUTPUT: ≤ 50 nM

INPUT: Please give the measured IC50 for this molecule: Cc1n[nH]c2cc(-c3nn([C@@H](C)c4oc5cccc(F)c5c(=O)c4-c4cccc(F)c4)c4ncnc(N)c34)ccc12
OUTPUT: ≤ 50 nM

INPUT: Please give the measured IC50 for this molecule: CC(C)Oc1ccc(-c2nn(C(C)c3oc4cccc(F)c4c(=O)c3-c3cn[nH]c3)c3ncnc(N)c23)cc1F (stereo not drawn)
OUTPUT: 50 to 100 nM

INPUT: I am curious: what IC50 value has been reported for CC(C)Oc1ccc(-c2nn(C(C)c3oc4cccc(F)c4c(=O)c3-c3ccccc3)c3ncnc(N)c23)cc1F (stereo not drawn) [Example 13] ?
OUTPUT: ≤ 50 nM

INPUT: Fill in: IC50 of CC(C)c1n[nH]c2cc(-c3nn(C(C)c4oc5cccc(F)c5c(=O)c4-c4cccc(F)c4)c4ncnc(N)c34)ccc12 (stereo not drawn) is ___
OUTPUT: 50 to 100 nM

INPUT: Using the record for CC(Nc1ncnc2[nH]cnc12)c1oc2cccc(F)c2c(=O)c1-c1cccc(F)c1 (single isomer, unassigned; (-)) , report its IC50.
OUTPUT: 50 to 100 nM

* * *

subject of test: PI3kβ (Homo sapiens, UniProt P42338)
Sequence (P42338 whole entry): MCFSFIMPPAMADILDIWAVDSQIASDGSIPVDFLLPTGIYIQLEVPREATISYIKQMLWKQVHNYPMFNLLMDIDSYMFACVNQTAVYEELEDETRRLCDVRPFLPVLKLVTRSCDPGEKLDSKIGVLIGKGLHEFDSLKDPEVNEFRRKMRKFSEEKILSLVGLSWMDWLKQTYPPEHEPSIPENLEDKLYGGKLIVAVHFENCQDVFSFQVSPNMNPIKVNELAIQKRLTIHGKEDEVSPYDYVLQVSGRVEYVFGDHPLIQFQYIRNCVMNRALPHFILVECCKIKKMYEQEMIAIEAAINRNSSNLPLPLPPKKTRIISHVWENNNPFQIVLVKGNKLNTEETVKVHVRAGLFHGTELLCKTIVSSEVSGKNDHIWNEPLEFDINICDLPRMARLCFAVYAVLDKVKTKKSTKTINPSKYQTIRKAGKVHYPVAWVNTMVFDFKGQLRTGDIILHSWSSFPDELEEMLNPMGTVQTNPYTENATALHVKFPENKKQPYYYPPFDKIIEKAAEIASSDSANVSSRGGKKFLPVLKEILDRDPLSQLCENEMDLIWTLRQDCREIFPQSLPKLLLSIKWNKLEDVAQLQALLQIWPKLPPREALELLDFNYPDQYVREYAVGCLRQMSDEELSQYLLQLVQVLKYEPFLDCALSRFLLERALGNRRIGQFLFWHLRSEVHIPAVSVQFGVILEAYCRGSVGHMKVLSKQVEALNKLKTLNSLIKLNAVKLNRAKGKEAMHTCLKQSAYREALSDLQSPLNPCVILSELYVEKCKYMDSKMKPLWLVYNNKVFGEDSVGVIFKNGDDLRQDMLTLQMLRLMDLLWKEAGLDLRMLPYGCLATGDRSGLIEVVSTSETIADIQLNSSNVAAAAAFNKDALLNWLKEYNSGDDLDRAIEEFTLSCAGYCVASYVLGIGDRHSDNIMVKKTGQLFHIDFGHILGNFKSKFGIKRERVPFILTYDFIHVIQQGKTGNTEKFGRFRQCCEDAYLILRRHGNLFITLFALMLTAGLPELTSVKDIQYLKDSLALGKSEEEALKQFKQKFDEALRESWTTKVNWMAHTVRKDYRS
Sequence (P27986 whole entry partner): as the sequence (P27986 whole entry partner) above
method: Fluorescent (HTRF) determination of PI3 kinase enzyme activity, PI3Kβ
Format: biochemical
condition info: 1 uM
Text: Assay 1: Fluorescent Determination of PI3Kinase Kinase Enzyme Activity Phosphoinositide 3 kinases (PI3K) belong to a class of lipid kinases that play a critical role in the regulation of several key cellular processes. […] The homogenous time resolved fluorescence (HTRF) assay allows detection of 3,4,5-triphosphate (PIP3) formed as a result of phosphorylation of phosphotidylinositol 4,5-biphosphate (PIP2) by PI3K isoforms such as α, β, γ or δ. […]
Give measured inhibition at 1 µM for each item. Keep answers brief.

INPUT: # input compound: Cc1nc2cc(-c3nn(C(C)c4oc5cccc(F)c5c(=O)c4-c4cccc(F)c4)c4ncnc(N)c34)ccc2[nH]1 (stereo not shown) ; wanted: its inhibition at 1 µM
OUTPUT: 25 to 50%

INPUT: Look at this compound and give its reported inhibition at 1 µM. CC(C)Oc1ccc(-c2nn(C(C)c3oc4cccc(F)c4c(=O)c3-c3ccccc3)c3ncnc(N)c23)cc1F (single isomer, unassigned)
OUTPUT: 25 to 50%

INPUT: Could you tell me which inhibition at 1 µM is on file for CC(C)Oc1ccc(-c2nn(C(C)c3oc4cccc(F)c4c(=O)c3-c3cccc(F)c3)c3ncnc(N)c23)cn1 (stereo not shown) ?
OUTPUT: 50 to 75%

INPUT: Endpoint output: inhibition at 1 µM of Cc1n[nH]c2cc(-c3nn(C(C)c4oc5cccc(F)c5c(=O)c4-c4cccc(F)c4)c4ncnc(N)c34)ccc12 (stereo not shown) . Value?
OUTPUT: 25 to 50%

INPUT: Find the recorded inhibition at 1 µM belonging to CC(c1oc2cccc(F)c2c(=O)c1-c1ccc(F)cc1)n1nc(-c2ccc(OC(F)F)c(F)c2)c2c(N)ncnc21 (stereo not shown) [Example 31] and report it.
OUTPUT: 25 to 50%

INPUT: Which inhibition at 1 µM value is on record for CC(C)Oc1ncc(-c2nn(C(C)c3oc4cccc(F)c4c(=O)c3-c3cccc(F)c3)c3ncnc(N)c23)cn1 (stereo not shown) ?
OUTPUT: 50 to 75%

INPUT: Could you share which inhibition at 1 µM value was measured for CC(c1oc2cccc(F)c2c(=O)c1-c1cccc(F)c1)n1nc(-c2cnc3[nH]ccc3c2)c2c(N)ncnc21 (stereo not shown) ?
OUTPUT: 0 to 25%
